- TARGET_SYSTEM: GST-tagged K-Ras mutant / His-tagged hSOS1 (Homo sapiens, UniProt P01116)
- Sequence (P01116 whole entry G12D, form open): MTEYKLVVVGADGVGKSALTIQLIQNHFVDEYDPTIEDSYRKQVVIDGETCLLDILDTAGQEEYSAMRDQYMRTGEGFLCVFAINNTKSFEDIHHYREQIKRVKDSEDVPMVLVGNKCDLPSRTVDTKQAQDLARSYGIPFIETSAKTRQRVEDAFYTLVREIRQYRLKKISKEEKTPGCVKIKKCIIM
- PROTOCOL: HTRF assay, K-Ras mutant / SOS1 interaction
- Assay type: binding
- SETUP_CONDITIONS: compound nos. 401-703; read-out: IC50 against mutant Kras
Reported IC50 is given for each of the following compounds.

{"columns": ["COMPOUND", "TARGET_SYSTEM", "IC50"],
 "data": [
  ["CN1CCCC1CCNc1nc(N2CC3CCC(C2)N3)c2ccc(-c3ccc(F)c4sc(N)nc34)nc2n1 (centres unmarked)", "GST-tagged K-Ras mutant / His-tagged hSOS1 (Homo sapiens, UniProt P01116)", "> 500 nM"],
  ["CNCCN1CCCN(c2nc(OCC34CCCN3CCC4)nc3c(F)c(-c4ccc(F)c5sc(N)nc45)c(Cl)cc23)CC1", "GST-tagged K-Ras mutant / His-tagged hSOS1 (Homo sapiens, UniProt P01116)", "< 500 nM"],
  ["N#CCCc1cc2c(N3CC4CCC(C3)N4)nc(OC[C@@]34CCCN3C[C@H](F)C4)nc2c(F)c1-c1ccc(F)c2sc(N)c(C#N)c12", "GST-tagged K-Ras mutant / His-tagged hSOS1 (Homo sapiens, UniProt P01116)", "< 500 nM"],
  ["Nc1ccc(-c2ccc(O)cc2-c2c(Cl)cc3c(N4CC5CCC(C4)N5)nc(OCC45CCCN4CCC5)nc3c2F)cc1", "GST-tagged K-Ras mutant / His-tagged hSOS1 (Homo sapiens, UniProt P01116)", "> 500 nM"],
  ["CO[C@@H]1CN(C)C[C@H]1Oc1nc(N2CC3CCC(C2)N3)c2cc(CCC#N)c(-c3ccc(F)c4sc(N)nc34)c(F)c2n1", "GST-tagged K-Ras mutant / His-tagged hSOS1 (Homo sapiens, UniProt P01116)", "> 500 nM"],
  ["N#CCN1C2CCC1CN(c1nc(OC[C@@]34CCCN3C[C@H](F)C4)nc3c(F)c(-c4ccc(F)c5sc(N)c(C#N)c45)c(Cl)cc13)C2", "GST-tagged K-Ras mutant / His-tagged hSOS1 (Homo sapiens, UniProt P01116)", "< 500 nM"],
  ["CN1CCC[C@H]1COc1nc(N2CCCCC(O)C2)c2cc(Cl)c(-c3cccc4sc(N)nc34)c(F)c2n1 (some centres unmarked) [Compound 506]", "GST-tagged K-Ras mutant / His-tagged hSOS1 (Homo sapiens, UniProt P01116)", "< 500 nM"],
  ["CN(C)CC1(COc2nc(N3CC4CCC(C3)N4)c3cc(Cl)c(-c4cccc5oc(N)nc45)c(F)c3n2)CC1", "GST-tagged K-Ras mutant / His-tagged hSOS1 (Homo sapiens, UniProt P01116)", "< 500 nM"],
  ["Nc1nc2c(-c3c(Cl)cc4c(N5CCC[C@H](N)CC5)nc(OC[C@@]56CCCN5C[C@H](F)C6)nc4c3F)ccc(F)c2s1", "GST-tagged K-Ras mutant / His-tagged hSOS1 (Homo sapiens, UniProt P01116)", "< 500 nM"],
  ["Fc1c(Br)c(Cl)cc2c(N3CCNCC(F)(F)C3)nc(OCC34CCCN3CCC4)nc12", "GST-tagged K-Ras mutant / His-tagged hSOS1 (Homo sapiens, UniProt P01116)", "> 500 nM"],
  ["Nc1nc2c(-c3c(Cl)cc4c(N5CC6CCC(C5)N6)nc(OCC5(CN6CCC(F)(F)C6)CC5)nc4c3F)ccc(F)c2s1", "GST-tagged K-Ras mutant / His-tagged hSOS1 (Homo sapiens, UniProt P01116)", "> 500 nM"],
  ["CO[C@@H]1CN(C)C[C@H]1Oc1nc(N2CC3CCC(C2)N3)c2cc(Cl)c(-c3ccc(F)c4sc(N)nc34)c(F)c2n1", "GST-tagged K-Ras mutant / His-tagged hSOS1 (Homo sapiens, UniProt P01116)", "< 500 nM"],
  ["Cc1nc(N2CCCCCC2)c2cc(Cl)c(-c3cccc4sc(N)nc34)cc2n1", "GST-tagged K-Ras mutant / His-tagged hSOS1 (Homo sapiens, UniProt P01116)", "> 500 nM"],
  ["Oc1cc(-c2cnc3c(N4CC5CCC(C4)N5)nc(OC[C@@]45CCCN4C[C@H](F)C5)nc3c2)c2ccccc2c1 (single isomer, unassigned) [Compound 429]", "GST-tagged K-Ras mutant / His-tagged hSOS1 (Homo sapiens, UniProt P01116)", "> 500 nM"],
  ["N#Cc1c(N)sc2c(F)ccc(-c3c(Cl)cc4c(N5C[C@H]6CC[C@@H](C5)N6C5CCOCC5)nc(OC[C@@]56CCCN5C[C@H](F)C6)nc4c3F)c12", "GST-tagged K-Ras mutant / His-tagged hSOS1 (Homo sapiens, UniProt P01116)", "< 500 nM"],
  ["Nc1nc2c(-c3c(Cl)cc4c(N5CC6CNCC(C5)N6)nc(OC[C@@]56CCCN5C[C@H](F)C6)nc4c3F)ccc(F)c2s1", "GST-tagged K-Ras mutant / His-tagged hSOS1 (Homo sapiens, UniProt P01116)", "< 500 nM"],
  ["Fc1c(-c2cccc3ncccc23)c(Cl)cc2c(N3CCCCCC3)nc(OCC34CCCN3CCC4)nc12", "GST-tagged K-Ras mutant / His-tagged hSOS1 (Homo sapiens, UniProt P01116)", "> 500 nM"],
  ["Nc1nc2c(-c3c(Cl)cc4c(N5CC6CCC(C5)N6)nc(OCC5(CN6CCCC6)CC5)nc4c3F)cccc2o1", "GST-tagged K-Ras mutant / His-tagged hSOS1 (Homo sapiens, UniProt P01116)", "< 500 nM"],
  ["Fc1c(N2CCCCc3ccccc32)ccc2c(N3CCCCCC3)nc(OCC34CCCN3CCC4)nc12", "GST-tagged K-Ras mutant / His-tagged hSOS1 (Homo sapiens, UniProt P01116)", "> 500 nM"],
  ["CC(C)CN1[C@@H]2CC[C@H]1CN(c1nc(OCC34CCCN3CCC4)nc3c(F)c(-c4ccc(F)c5sc(N)nc45)c(Cl)cc13)C2", "GST-tagged K-Ras mutant / His-tagged hSOS1 (Homo sapiens, UniProt P01116)", "< 500 nM"],
  ["Nc1nc2cc(-c3c(Cl)cc4c(N5CC6CCC(C5)N6)nc(OCC56CCCN5CCC6)nc4c3F)ccc2o1", "GST-tagged K-Ras mutant / His-tagged hSOS1 (Homo sapiens, UniProt P01116)", "> 500 nM"],
  ["OC1Cc2ccccc2N(c2ccc3c(N4CCCCCC4)nc(OCC45CCCN4CCC5)nc3c2F)C1 (centres unmarked)", "GST-tagged K-Ras mutant / His-tagged hSOS1 (Homo sapiens, UniProt P01116)", "> 500 nM"],
  ["Nc1nc2c(-c3c(Cl)cc4c(N5CC6COCC(C5)N6)nc(OC[C@@]56CCCN5C[C@H](F)C6)nc4c3F)ccc(F)c2s1", "GST-tagged K-Ras mutant / His-tagged hSOS1 (Homo sapiens, UniProt P01116)", "< 500 nM"],
  ["N#Cc1c(N)sc2c(F)ccc(-c3c(Cl)cc4c(N5CC6CCC(C5)N6C5CCOC5)nc(OC[C@@]56CCCN5C[C@H](F)C6)nc4c3F)c12 (some centres unmarked)", "GST-tagged K-Ras mutant / His-tagged hSOS1 (Homo sapiens, UniProt P01116)", "< 500 nM"],
  ["Nc1cc2cccc(-c3c(Cl)cc4c(N5CC6CCC(C5)N6)nc(OCC56CCCN5CCC6)nc4c3F)c2cn1", "GST-tagged K-Ras mutant / His-tagged hSOS1 (Homo sapiens, UniProt P01116)", "> 500 nM"],
  ["CNCCCN1[C@@H]2CC[C@H]1CN(c1nc(OCC34CCCN3CCC4)nc3c(F)c(-c4ccc(F)c5sc(N)nc45)c(Cl)cc13)C2", "GST-tagged K-Ras mutant / His-tagged hSOS1 (Homo sapiens, UniProt P01116)", "< 500 nM"]
]}

* * *

- TARGET_SYSTEM: GST-tagged K-Ras mutant / His-tagged hSOS1 (Homo sapiens, UniProt P01116)
- PROTOCOL: HTRF assay, K-Ras mutant / SOS1 interaction
- Assay type: binding
- SETUP_CONDITIONS: compound nos. 102-196, general methodology of example 5; read-out: IC50 against mutant Kras
pIC50: −log10 of the molar value.
MEASUREMENT_NAME: pIC50

{"columns": ["COMPOUND", "OBSERVED_VALUE"],
 "data": [
  ["CN1CCC[C@H]1COc1nc(N2CCNCC(F)(F)C2)c2cc(Cl)c(-c3cccc4[nH]c(N)nc34)c(F)c2n1 [Compound 178]", "< 6.30"],
  ["Nc1nc2c(-c3c(Cl)cc4c(N5CCCCC(F)(F)C5)nc(OC[C@@]56CCCN5C[C@H](F)C6)nc4c3F)ccc(F)c2s1 [Compound 168]", "> 6.30"],
  ["CN1CCC[C@H]1COc1nc(N2CCNCC(O)C2)c2cc(Cl)c(-c3cccc4sc(N)nc34)c(F)c2n1 (some centres unmarked) [Compound 103]", "> 6.30"],
  ["Nc1nc2c(-c3c(Cl)cc4c(N5CCOCC(O)C5)nc(OCC56CCCN5C[C@H](F)C6)nc4c3F)ccc(F)c2s1 (some centres unmarked) [Compound 160]", "< 6.30"],
  ["CO[C@@H]1C[C@@H](COc2nc(N3CCNCC(F)(F)C3)c3cc(Cl)c(-c4cccc5sc(N)nc45)c(F)c3n2)N(C)C1 [Compound 121]", "> 6.30"],
  ["CN1CCC[C@H]1COc1nc(N2CCNCC(F)(F)C2)c2cc(Cl)c(-c3cccc4nc(N)sc34)c(F)c2n1 [Compound 184]", "< 6.30"],
  ["Nc1nc2c(-c3c(Cl)cc4c(N5CCNCC(F)(F)C5)nc(OCC56CCCN5CCC6)nc4c3F)ccc(F)c2s1 [Compound 109]", "> 6.30"],
  ["Nc1nc2c(-c3c(Cl)cc4c(N5CCOCC(O)C5)nc(OCC56CCCN5CCC6)nc4c3F)cccc2s1 (centres unmarked) [Compound 156]", "> 6.30"],
  ["Nc1nc2c(-c3c(Cl)cc4c(N5CCOCC(F)(F)C5)nc(OCC56CCCN5CCC6)nc4c3F)ccc(F)c2s1 [Compound 115]", "> 6.30"],
  ["CN1CCC[C@H]1COc1nc(N2CCNCC(F)(F)C2)c2cc(Cl)c(-c3cccc4cccc(Cl)c34)c(F)c2n1 [Compound 170]", "< 6.30"],
  ["Nc1nc2c(-c3c(Cl)cc4c(N5CCNCC(F)(F)C5)nc(OCC56CCCN5CCC6)nc4c3F)cccc2s1 [Compound 105]", "> 6.30"],
  ["Nc1nc2c(-c3c(Cl)cc4c(N5CCCCC(F)(F)C5)nc(OCC56CCCN5CCC6)nc4c3F)cccc2s1 [Compound 116]", "> 6.30"],
  ["CN1CCC[C@H]1COc1nc(N2CCNCC(F)(F)C2)c2cc(Cl)c(-c3cccc4nc(O)oc34)c(F)c2n1 [Compound 169]", "< 6.30"],
  ["Nc1nc2c(-c3c(Cl)cc4c(N5CCCCC(F)(F)C5)nc(OCC56CCCN5CCC6)nc4c3F)ccc(F)c2s1 [Compound 117]", "> 6.30"]
]}
